Reference source: the RNAGym collection of RNA variant scans (doi:10.1002/anie.201605470)

B1: Osa-1-4 twister ribozyme (parent)
chain: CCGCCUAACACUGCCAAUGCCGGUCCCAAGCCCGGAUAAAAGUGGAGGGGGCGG

Variants of: B1
Experiment: self-cleavage, relative activity (ratio to wild type); higher = more cleavage; co-transcriptional
endpoint: self-cleavage
Number, no unit, nothing else.

Recorded results for 5 variants are shown here.
* C32U U24G | 0.01
* A38C G49U | 0.1
* A40G G23U | 0.05
* A10G G44A | 0.72
* C25A C26G | 0.05

Recorded result, C33A G54A , self-cleavage: 0.11

Recorded result, A39G A40G , self-cleavage: 0.36
